Read-out: Monocyte Chemoattractant Protein-1 (MCP1), CCL2 (gene 6347)
test-summary: BSK_LPS_MCP1: BioMAP Diversity Plus: LPS Assay for Monocyte Chemoattractant Protein-1 (MCP1) Biomarker Activity (AID 2283081)
measurement-context: primary human HUVEC with PBMC; actives raise or lower the signal
Active and inactive are the calls of the source. Rule for the calls: active = hit-call score of the fitted dose curve at least 0.9, where 1 is the maximum; inactive = score below 0.9.
Outcome field: choose from y = active, n = inactive

Previously resolved entries follow.
[
  {
    "molecule": "CN1CCCC1=O",
    "assigned-class": "n"
  },
  {
    "molecule": "Nc1ccc2c(c1)C(=O)c1ccccc1C2=O",
    "assigned-class": "n"
  },
  {
    "molecule": "CN[C@H]1CC[C@@H](c2ccc(Cl)c(Cl)c2)c2ccc(S(N)(=O)=O)cc21",
    "assigned-class": "y"
  }
]

Write down the call the test reported for this molecule. Item: "FC(F)(F)C(F)(F)C(F)(F)C(F)(F)C(F)(F)C(F)(F)CCI" n

Write down the call the test reported for this molecule. Item: "O=C(O)CCCCC(=O)O" n

Write down the call the test reported for this molecule. Item: "CNC(=O)[C@H]1O[C@@H](n2cnc3c(NCc4cc(Cl)ccc4OCc4cc(C)no4)ncnc32)[C@H](O)[C@@H]1N" n

Write down the call the test reported for this molecule. Item: "CCCCOC(=O)CCCCCCCCC(=O)OCCCC" n

Write down the call the test reported for this molecule. Item: "NCC1(Cc2noc(=O)[nH]2)CCCCC1" n

Write down the call the test reported for this molecule. Item: CC1(C)CC(N=C=O)CC(C)(CN=C=O)C1 (stereo not given) n

Write down the call the test reported for this molecule. Item: "C1CCC(SSC2CCCCC2)CC1" y

Write down the call the test reported for this molecule. Item: "Cc1c(C(=O)O)c(O)cc2c1C(=O)c1c(O)c([C@@H]3O[C@H](CO)[C@@H](O)[C@H](O)[C@H]3O)c(O)c(O)c1C2=O" n

Write down the call the test reported for this molecule. Item: CC(=O)C(C)=CC1C(C)=CCCC1(C)C (stereo not given) n

Write down the call the test reported for this molecule. Item: "Oc1ccc2c(c1)OC[C@@H](N1CCC(O)(c3ccc(F)cc3)CC1)[C@H]2O" n

Write down the call the test reported for this molecule. Item: "Cc1cc(NC(=O)C(=O)O)cc(C)c1Oc1ccc(O)c2c1CCC2" n

Write down the call the test reported for this molecule. Item: "CC(=O)OCCOCCOCCOC(C)=O" n

Write down the call the test reported for this molecule. Item: "COc1ccc(C)cc1N" n

Write down the call the test reported for this molecule. Item: "NC(=O)Cn1c(=O)cc(CCN2CCN(c3nccc4sccc34)CC2)c2ccc(F)cc21" n

###

test-summary: ACEA_AR_agonist_AUC_viability: ACEA Biosciences xCELLigence Real-Time Cell Analysis on Androgen Receptor Agonism for Viability (AID 2283775);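 for AC50: viability read 80 hours after compound addition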
Inconclusive results are not listed. The source made the active and inactive calls. The calls were made as follows: active = hit-call score of the fitted dose curve at least 0.9, where 1 is the maximum; inconclusive = response in the unintended direction; inactive = score below 0.9.
measured-property: AC50

[
  {
    "chemical-structure": "CNC(=O)[C@H]1O[C@@H](n2cnc3c(NCc4cc(Cl)ccc4OCc4cc(C)no4)ncnc32)[C@H](O)[C@@H]1N",
    "measured-property": "AC50",
    "endpoint-value": "inactive"
  },
  {
    "chemical-structure": "NC(=O)Cn1c(=O)cc(CCN2CCN(c3nccc4sccc34)CC2)c2ccc(F)cc21",
    "measured-property": "AC50",
    "endpoint-value": "inactive"
  },
  {
    "chemical-structure": "Cc1oc(-c2ccccc2)nc1CCOc1cccc2c1ccn2CCC(=O)O",
    "measured-property": "AC50",
    "endpoint-value": "68.8 µM (active)"
  },
  {
    "chemical-structure": "COc1cc(-c2nc(NC(=O)c3cc4cc(C)cc(C)c4n3CC(=O)O)sc2CCC2CCCCC2)c(OC)cc1Cl",
    "measured-property": "AC50",
    "endpoint-value": "9.71 µM (active)"
  },
  {
    "chemical-structure": "NCCO",
    "measured-property": "AC50",
    "endpoint-value": "inactive"
  }
]

// each listed compound needs a value for AC50
1. O=c1[nH]cc(F)c(=O)[nH]1
2. Cc1ccc(C)c(O)c1C
3. COc1ccc(C)cc1N
4. CNCc1cc(F)ccc1Oc1ccc(Cl)c(Cl)c1
5. Cc1ccc(C(C)C)c(O)c1
6. CN1CCCC1=O

["2.42 µM (active)", "inactive", "inactive", "75.9 µM (active)", "inactive", "inactive"]

Please report the measured AC50 for "C[Si]1(C)O[Si](C)(C)O[Si](C)(C)O[Si](C)(C)O1" inactive

###

Read-out: Matrix Metallopeptidase 1 (MMP1), MMP1 (gene 4312)
test-summary: BSK_hDFCGF_MMP1: BioMAP Diversity Plus: hDFCGF Assay for Matrix Metallopeptidase 1 (MMP1) Biomarker Activity (AID 2283064)
measurement-context: primary human foreskin fibroblasts; actives raise or lower the signal
Active and inactive are the calls of the source. The calls were made as follows: active = hit-call score of the fitted dose curve at least 0.9, where 1 is the maximum; inactive = score below 0.9.
Outcome field: choose from true (active), false (inactive)

[
  {
    "molecule": "CNC(=O)[C@H]1O[C@@H](n2cnc3c(NCc4cc(Cl)ccc4OCc4cc(C)no4)ncnc32)[C@H](O)[C@@H]1N",
    "assigned-class": "false"
  },
  {
    "molecule": "O=C(O)CCCCC(=O)O",
    "assigned-class": "false"
  },
  {
    "molecule": "Clc1cc(Cl)c(Cl)cc1Cl",
    "assigned-class": "false"
  },
  {
    "molecule": "CCCCCCCCCCCCCO",
    "assigned-class": "true"
  },
  {
    "molecule": "Cc1cccc(C)c1O",
    "assigned-class": "false"
  },
  {
    "molecule": "Cc1ccc(C(C)C)c(O)c1",
    "assigned-class": "false"
  },
  {
    "molecule": "CCCCCCCC=O",
    "assigned-class": "false"
  },
  {
    "molecule": "O=C(OCCCCCOC(=O)c1ccccc1)c1ccccc1",
    "assigned-class": "false"
  },
  {
    "molecule": "CCCCc1ccc2c(n1)[C@@H](c1ccc(OC)cc1C[C@H](C)C(=O)O)[C@H](C(=O)O)[C@H]2c1ccc2c(c1)OCO2",
    "assigned-class": "false"
  },
  {
    "molecule": "CCOc1ccc2c(c1)C(C)=CC(C)(C)N2",
    "assigned-class": "false"
  }
]

Write down the call the test reported for this molecule. Item: "O=C(O)Cc1ccccc1Nc1c(Cl)cccc1Cl" false

Write down the call the test reported for this molecule. Item: CC(=O)C(C)=CC1C(C)=CCCC1(C)C (centres undefined) false

Write down the call the test reported for this molecule. Item: "COCCOCCOC" false

Write down the call the test reported for this molecule. Item: "CCCCOC(=O)CCCCCCCCC(=O)OCCCC" false

###

target-of-assay: Transcription factor E2F1 (Homo sapiens) (UniProt Q01094)
Sequence (Q01094 whole entry, looked up): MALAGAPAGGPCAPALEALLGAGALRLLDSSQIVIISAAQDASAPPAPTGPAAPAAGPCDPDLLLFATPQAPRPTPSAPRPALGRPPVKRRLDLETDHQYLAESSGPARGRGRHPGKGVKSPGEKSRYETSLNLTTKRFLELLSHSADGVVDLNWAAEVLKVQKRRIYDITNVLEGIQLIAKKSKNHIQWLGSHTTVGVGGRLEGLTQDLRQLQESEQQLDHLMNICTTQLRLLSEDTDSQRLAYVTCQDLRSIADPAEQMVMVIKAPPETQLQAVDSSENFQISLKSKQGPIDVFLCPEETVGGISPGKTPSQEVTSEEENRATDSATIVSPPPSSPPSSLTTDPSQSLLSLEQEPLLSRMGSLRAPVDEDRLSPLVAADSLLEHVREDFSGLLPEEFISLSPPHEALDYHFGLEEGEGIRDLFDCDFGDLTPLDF
test-summary: ATG_E2F_CIS: Attagene CIS-FACTORIAL HepG2 Assay for human E2F Transcription Factor 1 (AID 2282935)
measurement-context: HepG2 Attagene cis-reporter, E2F reporter RNA transcripts; actives raise or lower the signal
Active and inactive are the calls of the source. How the source made its calls: active means hit-call score of the fitted dose curve at least 0.9, where 1 is the maximum; inactive means score below 0.9.
measured-property: outcome

Here's what some known entries look like.
[
  {
    "chemical-structure": "COc1ccc(C)cc1N",
    "outcome": "inactive"
  },
  {
    "chemical-structure": "c1cc(-c2ccncc2)ccn1",
    "outcome": "inactive"
  },
  {
    "chemical-structure": "Nc1nc(N)c2nc(CNc3ccc(C(=O)N[C@@H](CCC(=O)O)C(=O)O)cc3)cnc2n1",
    "outcome": "inactive"
  },
  {
    "chemical-structure": "O=C(N[C@@H](Cc1ccccc1)[C@@H](O)C(=O)N1C[C@@H](O)[C@@H](O)C1)c1cc2cc(Cl)ccc2[nH]1",
    "outcome": "inactive"
  }
]

// each listed compound needs a value for outcome
1. Cc1cc(NC(=O)C(=O)O)cc(C)c1Oc1ccc(O)c2c1CCC2
2. OC[C@@H](O)[C@@H](O)[C@H](O)[C@H](O)CO
3. NCC1(Cc2noc(=O)[nH]2)CCCCC1
4. Cc1ccccc1Cl
5. CCOC(=O)CCC(=O)OCC
6. Nc1ccc2c(c1)C(=O)c1ccccc1C2=O

["inactive", "inactive", "inactive", "inactive", "inactive", "inactive"]

// each listed compound needs a value for outcome
1. Cc1cccc(C)c1O
2. CCOc1ccc2c(c1)C(C)=CC(C)(C)N2

["inactive", "inactive"]

Please report the measured outcome for "CCCCOC(=O)CCCCCCCCC(=O)OCCCC" inactive

###

test-summary: ATG_E_Box_CIS: Attagene CIS-FACTORIAL HepG2 Assay for human Enhancer Box (E-box) (AID 2282936)
measurement-context: HepG2 E-box cis-reporter transcription, actives raise or lower the signal
The source made the active and inactive calls. The calls were made as follows: active = hit-call score of the fitted dose curve at least 0.9, where 1 is the maximum; inactive = score below 0.9.
Outcome field: choose from y (active), n (inactive)

[
  {
    "compound": "Cc1ccc(C)c(O)c1C",
    "assigned-class": "n"
  },
  {
    "compound": "CC(=O)C(C)=CC1C(C)=CCCC1(C)C (configuration not stated)",
    "assigned-class": "n"
  },
  {
    "compound": "C1CCC(SSC2CCCCC2)CC1",
    "assigned-class": "n"
  },
  {
    "compound": "COc1cc(/C=C/C(=O)CC(=O)/C=C/c2ccc(O)c(OC)c2)ccc1O",
    "assigned-class": "y"
  },
  {
    "compound": "CN[C@H]1CC[C@@H](c2ccc(Cl)c(Cl)c2)c2ccc(S(N)(=O)=O)cc21",
    "assigned-class": "n"
  },
  {
    "compound": "CCCCCCOCCO",
    "assigned-class": "n"
  }
]

Please examine the following record next.
Write down the call the test reported for this compound. Item: "Oc1ccc2ccccc2c1N=Nc1ccccc1" n
